# measurementTarget: T1, human IL1RAP (hu-IL1RAP) on human cells (human, UniProt Q9NPH3 21-570)
# T1 sequence: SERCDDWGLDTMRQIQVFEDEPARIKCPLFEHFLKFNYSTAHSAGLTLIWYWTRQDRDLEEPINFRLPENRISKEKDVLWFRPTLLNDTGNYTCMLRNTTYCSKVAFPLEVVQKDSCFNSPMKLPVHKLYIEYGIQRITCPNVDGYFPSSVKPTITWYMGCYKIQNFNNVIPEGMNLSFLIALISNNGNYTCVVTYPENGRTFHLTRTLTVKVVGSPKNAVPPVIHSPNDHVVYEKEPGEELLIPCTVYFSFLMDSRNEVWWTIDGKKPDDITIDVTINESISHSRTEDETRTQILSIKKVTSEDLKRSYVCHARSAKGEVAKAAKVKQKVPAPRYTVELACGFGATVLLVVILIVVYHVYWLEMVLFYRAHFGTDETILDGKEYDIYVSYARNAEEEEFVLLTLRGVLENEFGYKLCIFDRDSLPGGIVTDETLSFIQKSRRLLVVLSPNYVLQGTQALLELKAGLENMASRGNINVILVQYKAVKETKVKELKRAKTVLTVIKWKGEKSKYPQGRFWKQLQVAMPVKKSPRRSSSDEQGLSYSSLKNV
# experimentalDetails: cell-based or functional assay
measuredQuantity: HEK-Blue, IL-33, % inhibition at 100 nM (IgG)

binder	result
K13 IgG (VL-A51Y/W92I) (antibody, V domains shown) VH: EVQLVESGGGLVQPGGSLRLSCAASGFTFSNYAMSWVRQAPGKGLEWVATVTEGGDYNYYLDDVKGRFTISRDNAKNSLYLQMNSLRAEDTAVYYCARDRWPYFFDYWGQGTLVTVSS VL: DIQMTQSPSSLSASVGDRVTITCRASENIYSNLAWYQQKPGKSPKLLVYGYKNLADGVPSRFSGSGSGTDYTLTISSLQPEDFATYYCQHFITTPRTFGGGTKVEIK	100%
